# test_system: acetylcholine receptor
# assay_procedure: SPR, acetylcholine receptor immobilized on CM5 chip, peptide at 10 uM
# Lookup of reported Binding affinity (RU) keyed by entry

- binder: "RHSVK [5mer-900]"
  Binding affinity (RU): 29
- binder: "RYTFR [5mer-899]"
  Binding affinity (RU): 31
- binder: "RKNEK [5mer-1200]"
  Binding affinity (RU): 16
- binder: "KNNNR [5mer-1199]"
  Binding affinity (RU): 29

// provenance: patent US20250011363A1
